ENDPOINT_NAME: melting point

Use these answered entries as a reference point.
COMPOUND: CCOC(=O)C1=C(C)NC(C)=C(C(=O)OCC)C1c1ccc(Br)cc1F
melting point: 154 to 155 °C

COMPOUND: COC(=O)CCCC(=O)Nc1ccc(-c2ccc(C#N)cc2)cc1
melting point: 171 to 173 °C

COMPOUND: CO[C@H]1CC[C@H]([C@H]2CC[C@H](CCC3OCCO3)CC2)CC1
melting point: 74 °C

COMPOUND: CCN(CC)C(=O)c1cc(-c2cccs2)c2occc2c1
melting point: 64 °C

COMPOUND: CC(=O)CC(=O)Nc1ccc(C)cc1C
melting point: 89 °C

COMPOUND: O=C(CC1COC1)N[C@H]1CC[C@H](CCN2CCN(c3nccc4c3CCO4)CC2)CC1
melting point: 195 °C

COMPOUND: CC(=O)C1=CCC2C3CCC4=CC(=O)CCC4(C)C3=CCC12C (stereo unspecified)
melting point: 200 to 201 °C

COMPOUND: Oc1ccc(C(=C2SCCCS2)c2ccccc2)cc1
melting point: 135 to 137 °C

COMPOUND: O=c1c2c([nH]n1-c1ccc(Cl)cc1)-c1ccccc1SC2
melting point: 235 to 237 °C

COMPOUND: COC(=O)N(CCO)c1ccc(OCc2nc3ccccc3s2)cc1C
melting point: 109 to 110 °C

Turning now to a further record.
Noted for CN1CCc2nc3ccc(Cl)cc3c(Cl)c2C1 : its melting point reads 88 to 89 °C

----------
ENDPOINT_NAME: melting point

Use these answered entries as a reference point.
MOLECULE: N#CC(C(N)=O)=C1Cc2ccccc2SN1
ENDPOINT_NAME: melting point
MEASURED_RESULT: 260 to 267 °C

MOLECULE: Cc1cccc(NCC(=O)Nc2ccc(S(N)(=O)=O)cc2Cl)c1
ENDPOINT_NAME: melting point
MEASURED_RESULT: 185 to 189 °C

MOLECULE: CCC(=O)Nc1n[nH]c(C(C)(C)C)c1Cl
ENDPOINT_NAME: melting point
MEASURED_RESULT: 136 to 137 °C

MOLECULE: CCCCCCCCCCCCCCCCCCOc1cc(OCCCOc2ccc(S(C)=O)cc2)cc(C(=O)O)c1 (configuration not stated)
ENDPOINT_NAME: melting point
MEASURED_RESULT: 77 to 80 °C

Okay, here is my list. What is melting point for each of these?
1. O=C(O)CCCCCn1nnnc1S
2. COC1=c2ccccc2=c2ccc(Cl)cc2=C(c2ccccc2F)N1
3. O=C(O)c1cn(C2CC2)c2nc(N3CCC(c4ccncc4)C3)c(F)cc2c1=O (configuration not stated)

Marked response:
100 °C
136 to 138 °C
223 to 225 °C

Okay, here is my list. What is melting point for each of these?
1. CS(=O)(=O)c1cccc(NC(=O)c2cnn3c(C(F)F)cc(-c4ccc(C(F)(F)F)c(Cl)c4)nc23)c1
2. Clc1cccc2c1CCCC2c1c[nH]cn1 (configuration not stated)
3. CCCC(NOCC)=C1C(=O)CC(c2cc3ccccc3s2)CC1=O (configuration not stated)

Marked response:
1: 228 °C; 2: 165 to 169 °C; 3: 73 to 76 °C

Okay, here is my list. What is melting point for each of these?
1. CN(C/C=C/C#CC(C)(C)C)Cc1cccc(N(C)Cc2ccccc2)c1
2. O=C(Nc1cccnc1O)C1CCCC1
3. CN(C=O)C1c2ccccc2CCc2cc(Cl)ccc21 (configuration not stated)

Marked response:
["62 to 63 °C", "242 to 243 °C", "122 to 124 °C"]

Okay, here is my list. What is melting point for each of these?
1. CCC(OC(=O)c1ccccc1)c1nc2c(C(F)(F)F)cccc2c(O)c1C(=O)Nc1nccs1 (configuration not stated)
2. COc1ccc(N2CCCN(/C(C)=C(/C#N)C(N)=S)CC2)cc1
3. C#Cc1ccc(C)cc1CC(=O)O
4. CCOc1ccc(-c2nc(CCC(=O)c3nccs3)cs2)cc1OCC
5. O=S(=O)(NCCn1ccnc1)c1ccc(Br)cc1
6. COC(=O)c1cc(NN=C(c2ccccc2)c2ccccc2)c(C#N)s1
7. CNc1c(CC(C)O)cc([N+](=O)[O-])cc1[N+](=O)[O-] (configuration not stated)

Marked response:
1: 230 °C; 2: 157 to 158 °C; 3: 98 to 101 °C; 4: 93.1 to 94.4 °C; 5: 165 to 167 °C; 6: 178 to 180 °C; 7: 132 °C

Okay, here is my list. What is melting point for each of these?
1. CC1(C)CCC(C)(C)c2cc(OCc3ccc(C#N)cc3)ccc21
2. O=C1C(=O)c2c(nc3ccccn23)-c2cc([N+](=O)[O-])ccc21
3. CN(C)C(=S)C(O)c1ccc(OCc2ccccc2)cc1 (configuration not stated)
4. OC1CSC(Oc2ccc(-c3ccnc(F)c3)nc2Cl)C(O)C1O (configuration not stated)
5. CC(C)(C)OC(=O)N1CCCCc2ccc(Cl)nc21
6. COc1cn(-c2ccc(I)cc2F)nc(C(C)=O)c1=O
7. CC(=O)N1CCCN(NC(=O)c2ccc(F)cc2)CC1
8. CC(Oc1ncn(-c2ccc(Br)cc2)n1)C(=O)O (configuration not stated)

Marked response:
["149 to 150 °C", "> 300 °C", "104 to 107 °C", "195 °C", "166 to 168 °C", "196 to 198 °C", "117 to 119 °C", "195 to 197 °C"]

Okay, here is my list. What is melting point for each of these?
1. COC(=O)C1=C(C)Nc2nc(N3CCOCC3)nc(N3CCOCC3)c2C1c1ccccc1C#N (configuration not stated)
2. COc1cn(-c2ccc(N3CCNC3=O)cc2F)nc(-c2ccnn2-c2ccccc2)c1=O
3. O=C(Nc1ccc2cc(CN3CCCC3)ccc2c1)N1CCC(c2ccc(F)cc2)CC1
4. O=C(Nc1ccc([N+](=O)[O-])cc1)N1CCN(c2nc(-c3ccccc3)nc3ccccc23)CC1
5. COc1ccc(N2CCN(c3ccc(NC4=NCC(OC)S4)cc3)CC2)cc1 (configuration not stated)
6. OCCSc1cccc2nccn12
7. O=C(NCCCOc1ccccn1)c1cccs1

Marked response:
["221 °C", "259 to 260 °C", "209 to 211 °C", "236 to 238 °C", "178 °C", "99 to 100 °C", "91 to 92 °C"]

Okay, here is my list. What is melting point for each of these?
1. NNC(=O)CCCSc1nccc(NC(N)=NCC(F)(F)F)n1
2. CCOC(=O)Cc1ccc(CCN2CCN(C(=O)C=Cc3cc(C(C)(C)C)c(O)c(C(C)(C)C)c3)CC2)cc1

Marked response:
1. 192 to 195 °C
2. 111 to 113 °C

Okay, here is my list. What is melting point for each of these?
1. CC1(C)CC(N(c2nc(F)nc(N(C3CC(C)(C)NC(C)(C)C3)C3CC(C)(C)NC(C)(C)C3)n2)C2CC(C)(C)NC(C)(C)C2)CC(C)(C)N1
2. CCCCCCCCCCCCCCCNC(=O)OCCOCCOC(=O)NCc1ccccn1
3. O=NCNC1=Nc2ccc(Cl)cc2N(c2ccccc2)C(=O)C1
4. NS(=O)(=O)c1cc2c(s1)CN(CCO)CC2

Marked response:
1. 298 to 304 °C
2. 86 to 87 °C
3. 121 to 124 °C
4. 184 to 186 °C

Noted for CCOC(=O)c1ccc(C#CC2(O)CN3CCC2CC3)cc1 (configuration not stated) : its melting point reads 176 to 177 °C

Every entry's value here was drawn from a melting point compilation (Tetko et al.; mined from patent text by program, amines drawn as free bases though some values may be those of a salt).
